test-target: UniProtKB Q16552
Sequence (Q16552 20-155 limits assumed): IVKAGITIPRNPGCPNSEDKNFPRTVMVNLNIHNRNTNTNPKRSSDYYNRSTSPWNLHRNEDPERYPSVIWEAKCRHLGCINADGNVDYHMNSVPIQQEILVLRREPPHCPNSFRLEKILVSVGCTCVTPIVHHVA
assay-info: Inhibition of human IL-17A protein-induced GROα/CXCL1 production in HT-29 cells
Type: cell-based
Set-up: purchased R&D 317-ILB; host or cells: added exogenously to HT-29 cells
test-conditions: 30 ng/mL human IL-17A protein, 48 h, GROα in supernatant by ELISA kit, read-out: Inhibitory IC50 of compounds on HT-29 cell GROα/CXCL1
Each entry below lists one item and its recorded IC50 value.

| molecule | test-target | IC50 |
| --- | --- | --- |
| CCn1nccc1C(=O)N[C@H](C(=O)Nc1cc2c(cc1F)-c1c(n[nH]c1C)CCOC2)C1CCCCC1 [compound 49] | UniProtKB Q16552 | 0.1 to 0.5 µM |
| CCn1nccc1C(=O)N[C@H](C(=O)Nc1ccc2c(c1)COCCc1n[nH]c(C)c1-2)C(C1CC1)C1CC1 [compound 3] | UniProtKB Q16552 | ≤ 0.1 µM |
| Cc1[nH]nc2c1-c1cc(F)c(NC(=O)[C@@H](NC(=O)c3ccnn3C(C)C)C(C3CC3)C3CC3)cc1CN(C1CCC(F)(F)CC1)C(=O)C2 [compound 168] | UniProtKB Q16552 | ≤ 0.1 µM |
